Value source: PubChem BioAssay

assay notes: cell viability in Huh7 cells, primary screen, cytotoxicity control for HCV replication inhibitor project, CellTiter-Glo luminescence, basal, 48 h (AID 1143);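 also: Huh7 hepatoma cells carrying a hepatitis C replication reporter with no stimulus; test concentration not given here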
conditions used: Huh7 HCV replicon, higher = more signal, called active from +8 up or from −8 down
Quick rule: z-score of at least -0.8 means true, below that means false.

Quick check, z-score >= -0.8? COc1ccc(CCN2C(=O)[C@@]3(c4ccc([N+](=O)[O-])cc4)CC(=O)N(C4CCCCC4)[C@@H]3c3ccc(CO)cc32)cc1
true

Quick check, z-score >= -0.8? CCCCc1cn(C[C@H](Cc2ccccc2)NC(=O)N[C@H](CO)CCc2oc(C(C)=O)c(C(=O)OC)c2C(=O)OC)nn1
false

Quick check, z-score >= -0.8? [N-]=[N+]=NCc1ccccc1C[C@]1(C(=O)N2CCOCC2)N=C(c2ccc(OCCCO)cc2)O[C@H]1c1ccccc1N=[N+]=[N-]
false

Quick check, z-score >= -0.8? C=CCOC(=O)[C@@H]1[C@H]2C(=O)O[C@H](c3ccccc3)[C@H](c3ccccc3)N2[C@H](c2ccc(OCCOC(=O)[C@@H]3C[C@@H]4C(=O)N[C@@H](CCCCN(C)C)C(=O)N4[C@@H]3c3ccc(O)cc3)cc2)[C@@]12C(=O)Nc1ccc(I)cc12
true

Quick check, z-score >= -0.8? COC(=O)[C@@]1(Cc2ccc(OC)cc2)[C@H]2c3cc(C(=O)N4CCCC4)n(Cc4ccc(OC)c(OC)c4)c3C[C@H]2CN1C(=O)c1ccccc1
false

Quick check, z-score >= -0.8? CCOC1=C2C(CN(S(=O)(=O)c3ccc(C)cc3)C2c2ccc(C)cc2)C2C(=O)N(c3ccccc3)C(=O)C2C1 (centres undefined)
true

Quick check, z-score >= -0.8? COCCOC(=O)N1C(=O)[C@@]2(c3cc(C#CCCO)ccc31)[C@H](C(=O)N1CCc3cc(OC)c(OC)cc3C1)[C@H]1C(=O)O[C@H](c3ccccc3)[C@H](c3ccccc3)N1[C@@H]2c1ccc(O)cc1
true

Quick check, z-score >= -0.8? O=C1OCCC/C=C\[C@H]2OC34C=CCN(Cn5nnc6ccccc65)C(=O)[C@H]3N(CCCCCCO)C(=O)[C@@H]4C12 (some centres undefined)
true

Quick check, z-score >= -0.8? COCCOC(=O)N1C(=O)[C@@]2(c3cc(C#CC4=CCCCC4)ccc31)[C@H](C(=O)Nc1nc3ccccc3s1)[C@H]1C(=O)O[C@H](c3ccccc3)[C@H](c3ccccc3)N1[C@@H]2c1ccccc1OCCO
false
